# subject_of_test: Dual specificity tyrosine-phosphorylation-regulated kinase 1A (Homo sapiens) (UniProt Q13627)
# protocol_summary: Assay for Inhibitors of Dual-Specificity Tyrosine-(Y)-Phosphorylation Regulated Kinase 1A (Kinase-Glo assay): round 2 SAR
# condition_context: recombinant DYRK1A, Kinase-Glo ATP depletion luminescence; series mostly up to 76.9 µM
Records with an inconclusive call do not appear. The source made the active and inactive calls. The call rests on the fitted dose curve; in most records, active means well fitted inhibition curve with a large enough effect; inconclusive means small, poorly fitted or top-dose-only effect; inactive means flat fitted curve, though single readings scatter.
Entry note: the call must match one of active, inactive

{"compound_structure": "Cc1cccc(CNc2ncnc3ccc(-c4ccc5c(c4)OCO5)cc23)c1", "category": "active"}

Q. // param item: `Clc1ccccc1-c1ccc2ncnc(NCc3cccs3)c2c1` ; yields the recorded call
A. active

Q. Assay outcome for `c1cncc(CNc2ncnc3ccc(-c4ccco4)cc23)c1` : what was it?
A. active
